System: murine αPIG-AT25 iPSCs
Experiment: Cell viability (PrestoBlue) of murine iPSCs after compound treatment
Type: cell-based
Details: 0.1-25 μM, 48 h
Protocol: The transgenic murine induced pluripotent stem cell (miPSC) line αPIG-AT25 was generated from the miPSC line TiB7.4 as described in Fatima A et al., Stem Cell Res. 2016 Sep.; 17(2):266-272. […] Fluorescence intensities correlating with the number of viable cells in the wells were measured in black flat-bottom 96-well plates (Greiner Bio-One, Kremsmünster, Austria) with a GeniosPro microplate reader (Tecan, Männedorf, Schweiz). […]
metricName: toxicity to miPSCs (in words)

Please review the following examples before continuing.
| compound | metricName | testResult |
| --- | --- | --- |
| Oc1c(CNC2CCCC[C@@H]2NCc2cccc(-c3ccccc3)c2O)cccc1-c1ccccc1 (some centres unmarked) [SM1] | toxicity to miPSCs (in words) | good toxicity |
| CC(C)(C)c1cc(CN[C@@H]2CCCC[C@H]2NCc2cc(C(C)(C)C)cc(C(C)(C)C)c2O)c(O)c(C(C)(C)C)c1 | toxicity to miPSCs (in words) | did not |
| CN(Cc1cc(C(C)(C)C)cc(C(C)(C)C)c1O)[C@@H]1CCCC[C@H]1N(C)Cc1cc(C(C)(C)C)cc(C(C)(C)C)c1O | toxicity to miPSCs (in words) | did not |
| Oc1c(CNC2CCCC[C@@H]2NCc2cccc(-c3ccccc3)c2O)cccc1-c1ccccc1 (some centres unmarked) [SM8] | toxicity to miPSCs (in words) | good toxicity |

Ask | // toxicity to miPSCs (in words) lookup, key: CN(Cc1cccc(-c2ccccc2)c1O)[C@@H]1CCCC[C@H]1N(C)Cc1cccc(-c2ccccc2)c1O
Reply | did not

---

system: murine αPIG-AT25 iPSCs; experiment: Cell viability (PrestoBlue) of murine iPSCs after compound treatment; type: cell-based; settings: 48 h of treatment; mean ± SEE; n = 4-20; read-out: IC50 αPIG-AT25 miPSC
metricName: IC50 (nM)
Give bare numbers, in nM.

Ask | Endpoint output: IC50 of Oc1c(CNC2CCCC[C@@H]2NCc2cccc(-c3ccccc3)c2O)cccc1-c1ccccc1 (stereo partly shown) . Value?
Reply | 680

---

Kindly state IC50 for each of the entries shown.
test system: human iPSC line NP0014-C6; assay: Dose response assay (PrestoBlue) on human iPSCs; type: cell-based; details: Homo sapiens, iPSC, 48 h, 48 h of treatment; mean ± SEE; n = 4-20; read-out: IC50 hiPSC

The following compounds have reported results that may help.
| compound | IC50 |
| --- | --- |
| Oc1c(/C=N/[C@H]2CCCC[C@@H]2NCc2cccc(-c3ccccc3)c2O)cccc1-c1ccccc1 [SM2] | 2700 nM |
| Oc1c(/C=N/[C@@H]2CCCC[C@H]2NCc2cccc(-c3ccccc3)c2O)cccc1-c1ccccc1 [SM5] | 910 nM |
| Oc1c(CNC2CCCC[C@@H]2NCc2cccc(-c3ccccc3)c2O)cccc1-c1ccccc1 (some centres unmarked) [SM8] | 290 nM |

Please report IC50 for every entry that follows.
1. Oc1ccccc1CN[C@@H]1CCCC[C@H]1NCc1ccccc1O [SM6]
2. Oc1c(CN[C@@H]2CCCC[C@H]2NCc2cccc(-c3ccccc3)c2O)cccc1-c1ccccc1 [SM4]

Reply |
1: 1560 nM; 2: 360 nM
